A collection of sequences and their measured PBM E-score
# system tested: Ste12 (UniProt P13574)
# Sequence (P13574 whole entry): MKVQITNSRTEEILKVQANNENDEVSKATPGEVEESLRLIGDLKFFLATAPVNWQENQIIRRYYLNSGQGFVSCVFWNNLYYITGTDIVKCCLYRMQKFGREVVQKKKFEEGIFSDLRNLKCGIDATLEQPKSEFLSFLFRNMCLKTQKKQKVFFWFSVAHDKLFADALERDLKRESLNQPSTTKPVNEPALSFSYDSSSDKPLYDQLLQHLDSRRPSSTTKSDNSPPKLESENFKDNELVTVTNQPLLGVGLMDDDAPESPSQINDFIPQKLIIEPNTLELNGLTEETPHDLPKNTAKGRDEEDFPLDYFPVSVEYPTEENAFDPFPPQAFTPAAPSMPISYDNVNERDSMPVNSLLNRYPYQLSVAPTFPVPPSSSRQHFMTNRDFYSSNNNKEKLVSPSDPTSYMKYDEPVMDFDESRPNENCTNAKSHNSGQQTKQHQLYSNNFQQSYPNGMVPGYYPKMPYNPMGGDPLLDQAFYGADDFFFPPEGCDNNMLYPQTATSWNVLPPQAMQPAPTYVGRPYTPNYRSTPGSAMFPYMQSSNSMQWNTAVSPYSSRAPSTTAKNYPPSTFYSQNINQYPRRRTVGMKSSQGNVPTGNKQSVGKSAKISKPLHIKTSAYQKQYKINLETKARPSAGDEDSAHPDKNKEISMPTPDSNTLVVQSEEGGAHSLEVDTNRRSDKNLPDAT
# measurement notes: PBM E-score (8-mer binding enrichment) (E-score (-0.5 to 0.5)); higher = stronger / more preferred TF binding
# experimental parameters: protein concentration: 200 nM; construct: GST-DNA-binding domain
The full ranking holds about 33,000 sequences; the median of “E-score (-0.5 to 0.5)” is about -0.01, and the highest 2% start at about 0.26. The sample holds the highest values, similar sequences and a random draw of the others, so the mix is not that of the screen.

construct sequence: CTCATAAA
PBM E-score: -0.00236
--
construct sequence: CGATACAA
PBM E-score: 0.0267
--
construct sequence: AAAAAAAG
PBM E-score: 0.294
--
construct sequence: TGAAAGAA
PBM E-score: 0.131
--
construct sequence: CCCATACG
PBM E-score: -0.123
--
construct sequence: GCCTAAAA
PBM E-score: -0.0428
--
construct sequence: AGATACAA
PBM E-score: 0.135
--
construct sequence: GGGATAAA
PBM E-score: 0.271
--
construct sequence: AAAAAAGA
PBM E-score: 0.182
--
construct sequence: CTTCACCC
PBM E-score: 0.0896
--
construct sequence: CCTTTTCG
PBM E-score: 0.19
--
construct sequence: ATTTAAAG
PBM E-score: 0.275
--
construct sequence: CGAAAAAG
PBM E-score: 0.212
--
construct sequence: ATGATAAA
PBM E-score: 0.209
--
construct sequence: ATGTTGCG
PBM E-score: 0.139
--
construct sequence: CTTTAAAG
PBM E-score: -0.0155
--
construct sequence: GGGATAAC
PBM E-score: -0.0162
--
construct sequence: GGAAATAA
PBM E-score: 0.284
--
construct sequence: ACGTCTCA
PBM E-score: 0.274
--
construct sequence: TCCATAAA
PBM E-score: 0.11
--
construct sequence: GGAAAACC
PBM E-score: 0.0776
--
construct sequence: GCGTCTCA
PBM E-score: 0.166
--
construct sequence: ACCATAAG
PBM E-score: -0.16
--
construct sequence: ATGTGTCA
PBM E-score: 0.119
--
construct sequence: GTCGCTGA
PBM E-score: 0.0069
--
construct sequence: GGAAAAAC
PBM E-score: 0.322

====

A collection of sequences and their measured PBM E-score
# system tested: Ste12 (UniProt P13574)
# measurement notes: PBM E-score (8-mer binding enrichment) (E-score (-0.5 to 0.5)); higher = stronger / more preferred TF binding
# experimental parameters: protein concentration: 200 nM; construct: GST-DNA-binding domain
In all, about 33,000 sequences were measured (“E-score (-0.5 to 0.5)”: median about -0.01, highest 2% from about 0.26 on). The sample as a whole holds a higher share of the highest values than the screen did.

construct sequence: ATAAAGAC
PBM E-score: -0.0448
--
construct sequence: AATGGGGG
PBM E-score: -0.187
--
construct sequence: CCGAAAAG
PBM E-score: 0.235
--
construct sequence: CCGAAACG
PBM E-score: 0.152
--
construct sequence: CAACACGC
PBM E-score: -0.247
--
construct sequence: CTAAATAA
PBM E-score: 0.0819
--
construct sequence: ACCCACCA
PBM E-score: 0.0136
--
construct sequence: GCTGAGCC
PBM E-score: -0.0937
--
construct sequence: ACGAAACA
PBM E-score: 0.327
--
construct sequence: CGTATGAA
PBM E-score: 0.213
--
construct sequence: GAGTTTCC
PBM E-score: -0.00944
--
construct sequence: CAATCCCA
PBM E-score: -0.0795
--
construct sequence: TAAACGCA
PBM E-score: -0.0738
--
construct sequence: TCCCGCAA
PBM E-score: 0.18
--
construct sequence: CAATCCCG
PBM E-score: 0.321
--
construct sequence: ACGAAAAG
PBM E-score: 0.16
--
construct sequence: AGTCCCAC
PBM E-score: -0.133
--
construct sequence: AAGAAACT
PBM E-score: 0.172
--
construct sequence: AAAAATTT
PBM E-score: 0.138
--
construct sequence: TTATGAAA
PBM E-score: 0.431
--
construct sequence: AAACACAG
PBM E-score: 0.118
--
construct sequence: AAGCTAGC
PBM E-score: -0.242
--
construct sequence: CCTAGACG
PBM E-score: -0.134
--
construct sequence: CCCCACCA
PBM E-score: 0.102
--
construct sequence: ACTGAGGG
PBM E-score: -0.101
--
construct sequence: ACCCACCT
PBM E-score: 0.0687
--
construct sequence: AAAGCGGC
PBM E-score: 0.054
--
construct sequence: ATAATTAT
PBM E-score: 0.195
--
construct sequence: ACGAAACC
PBM E-score: 0.242
--
construct sequence: AAAATTAG
PBM E-score: 0.31
--
construct sequence: ACCCACCC
PBM E-score: 0.314
--
construct sequence: CCGAAAAC
PBM E-score: 0.0124
--
construct sequence: AGCGACTA
PBM E-score: -0.043
--
construct sequence: ATACACAC
PBM E-score: -0.0713
--
construct sequence: GCCTATCC
PBM E-score: -0.214
--
construct sequence: TAAAATAA
PBM E-score: 0.269
--
construct sequence: GGAGGGCA
PBM E-score: 0.0377
--
construct sequence: CACCTTCC
PBM E-score: 0.0254
--
construct sequence: GAATGAGC
PBM E-score: -0.0246
--
construct sequence: CTCCACAA
PBM E-score: 0.00925
--
construct sequence: CCCCACCC
PBM E-score: 0.361
--
construct sequence: GTTCAAAA
PBM E-score: 0.107
--
construct sequence: ATATGAAA
PBM E-score: 0.346
--
construct sequence: CAATCCCC
PBM E-score: 0.0988
--
construct sequence: CGCCGGCC
PBM E-score: -0.00587
--
construct sequence: GAGCTTGA
PBM E-score: -0.176
--
construct sequence: AAACACCG
PBM E-score: 0.318
--
construct sequence: TTCAAAAA
PBM E-score: 0.298
--
construct sequence: CTTCAAAA
PBM E-score: 0.191
--
construct sequence: TAACGTAA
PBM E-score: 0.191
--
construct sequence: ACCTAATC
PBM E-score: 0.0677
--
construct sequence: GCCCACCA
PBM E-score: -0.0497
--
construct sequence: ACGAAACT
PBM E-score: 0.127
--
construct sequence: AAACACCT
PBM E-score: 0.104

// provenance: the supplement of paper PMC3334620
